measured.target: human norepinephrine transporter (Homo sapiens, UniProt P23975)
Construct: host or cells: HEK-293
Sequence (P23975 whole entry): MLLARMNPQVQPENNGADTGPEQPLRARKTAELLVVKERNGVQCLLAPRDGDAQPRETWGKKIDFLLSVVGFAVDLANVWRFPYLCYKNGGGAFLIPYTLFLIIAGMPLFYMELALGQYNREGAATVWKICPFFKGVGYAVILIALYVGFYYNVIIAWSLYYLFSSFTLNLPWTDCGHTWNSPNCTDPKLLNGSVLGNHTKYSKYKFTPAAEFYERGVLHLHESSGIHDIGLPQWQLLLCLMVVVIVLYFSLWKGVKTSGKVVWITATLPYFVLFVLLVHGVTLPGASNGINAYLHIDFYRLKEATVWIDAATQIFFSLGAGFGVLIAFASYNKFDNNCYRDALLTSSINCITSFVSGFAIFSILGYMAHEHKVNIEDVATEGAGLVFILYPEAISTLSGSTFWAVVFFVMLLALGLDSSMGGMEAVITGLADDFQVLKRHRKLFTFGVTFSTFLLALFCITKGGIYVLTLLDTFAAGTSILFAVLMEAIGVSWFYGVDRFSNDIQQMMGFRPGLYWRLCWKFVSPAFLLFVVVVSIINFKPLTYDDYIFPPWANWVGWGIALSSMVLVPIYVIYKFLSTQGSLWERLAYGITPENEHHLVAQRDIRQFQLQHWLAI
assay.notes: hNET receptor binding ([125I]-RTI-55 radioligand binding)
run.conditions: membranes of HEK-293 cells transfected with human norepinephrine transporter, IC50 converted to Ki by Cheng-Prusoff, read-out: hNET (Ki)
pKi: −log10 of the molar value.
Response key: y means pKi >= 6; n means pKi < 6.

Query string: pKi >= 6 for "FC(F)(F)Oc1ccccc1O[C@@H](c1cccnc1)[C@H]1CNCCO1" ?
Result string: y

Query string: Item "CCOc1ccccc1O[C@@H](c1cc(CC)ccn1)[C@@H]1CNCCO1" with pKi of 6 or above?
Result string: y

Query string: Hello, I need to know if "Fc1cccc(F)c1O[C@H](C1=CCCC1)[C@@H]1CNCCO1" has measured pKi not below 6. Thanks!
Result string: n

Query string: Check if pKi >= 6 (inclusive). Item: Fc1ccccc1OC(c1ccccn1)[C@@H]1CNCCO1 (single isomer, unassigned) [Example 121]
Result string: y

---

measured.target: human norepinephrine transporter (Homo sapiens, UniProt P23975)
Construct: host or cells: HEK-293
assay.notes: hNET receptor binding ([125I]-RTI-55 radioligand binding)
run.conditions: membranes of HEK-293 cells transfected with human norepinephrine transporter, IC50 converted to Ki by Cheng-Prusoff, read-out: hNET (Ki)
experimental.endpoint: Ki
Quick note: number first, unit second.

Query string: What value of Ki on human norepinephrine transporter (Homo sapiens, UniProt P23975) does CSc1cc(F)ccc1O[C@@H](c1ccccc1)[C@@H]1CNCCO1 [Example 198] have?
Result string: 30 nM

Query string: Query for human norepinephrine transporter (Homo sapiens, UniProt P23975): what Ki does the record show for c1ccc(Oc2ccccc2O[C@@H](c2ccccc2)[C@@H]2CNCCO2)cc1 [Example 14] ?
Result string: 61 nM

Query string: Provide the documented Ki with human norepinephrine transporter (Homo sapiens, UniProt P23975) as the system for Fc1cccc(F)c1O[C@@H](c1ccccc1)[C@@H]1CNCCO1 [Example 36]
Result string: 3.7 nM

Query string: Item: Fc1cccc(C(F)(F)F)c1O[C@@H](c1ccccc1)[C@@H]1CNCCO1 [Example 193] Test system: human norepinephrine transporter (Homo sapiens, UniProt P23975) Read-out: Ki Value: ?
Result string: 3 nM

Query string: Identify the measured Ki of CC(C)Oc1ccccc1O[C@@H](c1ccccc1)[C@@H]1CNCCO1 [Example 46] for human norepinephrine transporter (Homo sapiens, UniProt P23975).
Result string: 6.5 nM

Query string: Give recorded Ki with human norepinephrine transporter (Homo sapiens, UniProt P23975) for the following compound: Fc1ccc(O[C@@H](c2ccccn2)[C@H]2CNCCO2)c(F)c1 [Example 28]
Result string: 8410 nM

Query string: Item FC(F)Oc1ccccc1O[C@@H](c1ccccc1)[C@@H]1CNCCO1 [Example 57] with human norepinephrine transporter (Homo sapiens, UniProt P23975) - Ki?
Result string: 24 nM

Query string: // fetch human norepinephrine transporter (Homo sapiens, UniProt P23975) Ki for c1ccc(O[C@@H](c2ccccc2)[C@@H]2CNCCO2)cc1 [Example 80]
Result string: 7.5 nM

Query string: # query: Ki | item C=Cc1ccccc1O[C@@H](c1ccccc1)[C@@H]1CNCCO1 [Example 5] | system: human norepinephrine transporter (Homo sapiens, UniProt P23975)
Result string: 13 nM

Query string: What is its Ki for human norepinephrine transporter (Homo sapiens, UniProt P23975)? Entry: CC(C)Oc1ccccc1O[C@@H](c1ccccn1)[C@@H]1CNCCO1 [Example 126]
Result string: 32 nM

Query string: Item CCOc1ccccc1OC(C1CC1)[C@@H]1CNCCO1 (stereo partly drawn) [Example 118] with human norepinephrine transporter (Homo sapiens, UniProt P23975) - Ki?
Result string: 1140 nM

Query string: Provide the documented Ki with human norepinephrine transporter (Homo sapiens, UniProt P23975) as the system for CCOc1ccccc1OC(CC(C)C)[C@@H]1CNCCO1 (mixture of isomers) [Example 105]
Result string: 1500 nM
